# DR/DR AA listing for each entry below
# Assay overview: Probe fluorescence ratio response to arachidonic acid relative to ADIFAB2
# Type: binding
# Condition context: arachidonic acid; response relative to ADIFAB2
Kindly provide the number alone.

23V2, 72A (protein, listed as Rattus norvegicus, PEPTIDE (1)...(131) wild-type rat intestinal fatty acid binding protein) AFDGTWKVDRNENYEKFMEKMGVNVVKRKLGAHDNLKLTITQEGNKFTVKESSNFRNIDVVFELGVDFAYSAADGTELTGTWTMEGNKLVGKFKRVDNGKELIAVREISGNELIQTYTYEGVEAKRIFKKE :: 1.46
36D1, 72A (protein, listed as Rattus norvegicus, PEPTIDE (1)...(131) wild-type rat intestinal fatty acid binding protein) AFDGTWKVDRNENYEKFMEKMGINVVKRKLGAHDNDKLTITQEGNKFTVKESSNFRNIDVVFELGVDFAYSAADGTELTGTWTMEGNKLVGKFKRVDNGKELIAVREISGNELIQTYTYEGVEAKRIFKKE :: 0.20
117R, 72A (protein, listed as Rattus norvegicus, PEPTIDE (1)...(131) wild-type rat intestinal fatty acid binding protein) AFDGTWKVDRNENYEKFMEKMGINVVKRKLGAHDNLKLTITQEGNKFTVKESSNFRNIDVVFELGVDFAYSAADGTELTGTWTMEGNKLVGKFKRVDNGKELIAVREISGNELIQTRTYEGVEAKRIFKKE :: 0.64
102K, 72A (protein, listed as Rattus norvegicus, PEPTIDE (1)...(131) wild-type rat intestinal fatty acid binding protein) AFDGTWKVDRNENYEKFMEKMGINVVKRKLGAHDNLKLTITQEGNKFTVKESSNFRNIDVVFELGVDFAYSAADGTELTGTWTMEGNKLVGKFKRVDNGKEKIAVREISGNELIQTYTYEGVEAKRIFKKE :: 0.47

Query block: Return reported DR/DR AA; argument: 31E, 72A (protein, listed as Rattus norvegicus, PEPTIDE (1)...(131) wild-type rat intestinal fatty acid binding protein) AFDGTWKVDRNENYEKFMEKMGINVVKRKLEAHDNLKLTITQEGNKFTVKESSNFRNIDVVFELGVDFAYSAADGTELTGTWTMEGNKLVGKFKRVDNGKELIAVREISGNELIQTYTYEGVEAKRIFKKE
Result block: 0.238

Query block: Return reported DR/DR AA; argument: 106M, 72A (protein, listed as Rattus norvegicus, PEPTIDE (1)...(131) wild-type rat intestinal fatty acid binding protein) AFDGTWKVDRNENYEKFMEKMGINVVKRKLGAHDNLKLTITQEGNKFTVKESSNFRNIDVVFELGVDFAYSAADGTELTGTWTMEGNKLVGKFKRVDNGKELIAVMEISGNELIQTYTYEGVEAKRIFKKE
Result block: 0.554

FYI, the data here is from patent US20060257938A1.
